system: NCXrev (reverse Na+/Ca2+ exchanger); assay: Gramicidin-induced; assay type: cell-based, rat; conditions: read-out: IC50, inhibition of gramicidin-induced increase in [Ca2+]c; 5 μM gramicidin; bath with 5 μM nifedipine and 1 mM ouabain; Suppl. Fig. 6
The entries below come with measured pIC50 values attached.
The meaning of pIC50 here: minus log10 of the concentration in molar units.

{"molecule": "N[C@H](CCCP(=O)(O)O)C(=O)O [AP-5, D-(−)-2-Amino-5-phosphonopentanoic acid]", "tgt": "NCXrev (reverse Na+/Ca2+ exchanger)", "value-observed": 5.55}
{"molecule": "C[C@]12N[C@H](Cc3ccccc31)c1ccccc12", "tgt": "NCXrev (reverse Na+/Ca2+ exchanger)", "value-observed": 6.30}

Turning now to a further record.
Q: Write pIC50 of CC12CC3CC(C)(C1)CC(N)(C3)C2 [memantine] ; system used: NCXrev (reverse Na+/Ca2+ exchanger)
Ans: 4.77
